subjectOfTest: fusion protein PRF
Sequence (chain, as listed by the source): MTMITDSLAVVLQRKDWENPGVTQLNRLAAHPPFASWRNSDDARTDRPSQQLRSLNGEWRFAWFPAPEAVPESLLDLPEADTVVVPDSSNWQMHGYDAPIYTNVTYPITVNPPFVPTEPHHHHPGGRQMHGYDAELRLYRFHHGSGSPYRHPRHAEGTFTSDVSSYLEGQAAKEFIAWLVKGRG
property: relative cleavage efficiency

Would you kindly share the measured relative cleavage efficiency for OmpT protease (wild-type, E. coli mature OmpT protease) (protein) STETLSFTPDNINADISLGTLSGKTKERVYLAEEGGRKVSQLDWKFNNAAIIKGAINWDLMPQISIGAAGWTTLGSRGGNMVDQDWMDSSNPGTWTDESRHPDTQLNYANEFDLNIKGWLLNEPNYRLGLMAGYQESRYSFTARGGSYIYSSEEGFRDDIGSFPNGERAIGYKQRFKMPYIGLTGSYRYEDFELGGTFKYSGWVESSDNDEHYDPGKRITYRSKVKDQNYYSVAVNAGYYVTPNAKVYVEGAWNRVTNKKGNTSLYDHNNNTSDYSKNGAGIENYNFITTAGLKYTF ?
< 3%
